Each recorded value in this set is attributed to PubChem BioAssay AID248.

Test system: L1210 leukemia ip in BDF1 mice, survival T/C
protocol-summary: NCI In Vivo Anticancer Drug Screen. Data for tumor model L1210 Leukemia (intraperitoneal) in B6D2F1 (BDF1) mice
measurement-conditions: endpoint: mean survival time; dose: 200.0 mg/kg/injection; schedule: Q04DX002 (ip); vehicle: Klucel (hydroxypropylcellulose) (HPC); higher = longer survival
Protocol: The antitumor activity of compounds was measured in mice bearing transplantable tumors. Survival or tumor size were measured and the results are expressed as the measurement made in the treated group (T) divided by the measurement made in the vehicle treated control group (C). The tumor model used in this assay is L1210 Leukemia (intraperitoneal) in B6D2F1 (BDF1) mice
Toxic doses and inconclusive results are not listed.
Consider the following compounds; for each one, report its T/C.

Case OC1(c2ccccc2)c2ccccc2C(O)(c2ccccc2)c2cc3c(cc21)CCCC3 (centres undefined) , L1210 leukemia ip in BDF1 mice, survival T/C, T/C recorded as 91 % of control

Case CNC(=O)C1C(c2ccccc2)C1c1ccc(C)cc1 (centres undefined) , L1210 leukemia ip in BDF1 mice, survival T/C, T/C recorded as 92 % of control

Case O=C(O)c1ccc(Cl)cc1F , L1210 leukemia ip in BDF1 mice, survival T/C, T/C recorded as 108 % of control

Case Cc1cccc(Cl)c1NC(=S)Nc1ccccc1 , L1210 leukemia ip in BDF1 mice, survival T/C, T/C recorded as 94 % of control

====

Tested on: L1210 leukemia ip in BDF1 mice, survival T/C
protocol-summary: NCI In Vivo Anticancer Drug Screen. Data for tumor model L1210 Leukemia (intraperitoneal) in B6D2F1 (BDF1) mice
measurement-conditions: endpoint: mean survival time; dose: 100.0 mg/kg/injection; schedule: Q01DX009 (ip); vehicle: Klucel (hydroxypropylcellulose) (HPC); higher = longer survival
Toxic doses and inconclusive results are not listed.
Consider the following molecules; for each one, report its T/C.

Entry CN(C)C(=O)C1Cc2ccccc2CC1C(=O)N(C)C (configuration not stated) ; T/C = 97 % of control

Entry CCOC(=O)C(C)Oc1ccccc1[N+](=O)[O-] (configuration not stated) ; T/C = 93 % of control

Entry CC(=O)OC(C(=O)c1ccccc1)c1ccccc1 (configuration not stated) ; T/C = 94 % of control

Entry O=[N+]([O-])c1cc([N+](=O)[O-])c(Nc2cccc3ccccc23)c([N+](=O)[O-])c1 ; T/C = 99 % of control

Entry CC(=O)C(C(c1ccccc1)N1CCCc2ccccc21)N1CCOCC1 (configuration not stated) ; T/C = 96 % of control

Entry CCOC(=O)CSc1ccc([N+](=O)[O-])cc1Cl ; T/C = 102 % of control

Entry O=C1COc2ccc(Cl)cc2N1 ; T/C = 100 % of control

Entry CCCCN1C(=O)CC(C23C(=O)N(CCCC)C(=O)C2CCc2ncccc23)C1=O (configuration not stated) ; T/C = 87 % of control

Entry CC(C)c1ccc(N2P(=O)(N(C)C)N(c3ccc(C(C)C)cc3)P2(=O)N(C)C)cc1 (configuration not stated) ; T/C = 95 % of control

Entry CCCCCCCCCCCCCCCCCC(=O)N/N=C/C(C=C=C(C)C)(CC)CCCC (configuration not stated) ; T/C = 101 % of control

Entry Nc1nc2ccc([N+](=O)[O-])cc2s1 ; T/C = 104 % of control

Entry CCC(O)c1cnc(OCc2ccccc2)nc1OCc1ccccc1 (configuration not stated) ; T/C = 94 % of control
